Target: Human ASK1 (Homo sapiens)
Construct: expressed in transfected cells; host or cells: HEK293T-AP1
Sequence (Q99683 1-1374): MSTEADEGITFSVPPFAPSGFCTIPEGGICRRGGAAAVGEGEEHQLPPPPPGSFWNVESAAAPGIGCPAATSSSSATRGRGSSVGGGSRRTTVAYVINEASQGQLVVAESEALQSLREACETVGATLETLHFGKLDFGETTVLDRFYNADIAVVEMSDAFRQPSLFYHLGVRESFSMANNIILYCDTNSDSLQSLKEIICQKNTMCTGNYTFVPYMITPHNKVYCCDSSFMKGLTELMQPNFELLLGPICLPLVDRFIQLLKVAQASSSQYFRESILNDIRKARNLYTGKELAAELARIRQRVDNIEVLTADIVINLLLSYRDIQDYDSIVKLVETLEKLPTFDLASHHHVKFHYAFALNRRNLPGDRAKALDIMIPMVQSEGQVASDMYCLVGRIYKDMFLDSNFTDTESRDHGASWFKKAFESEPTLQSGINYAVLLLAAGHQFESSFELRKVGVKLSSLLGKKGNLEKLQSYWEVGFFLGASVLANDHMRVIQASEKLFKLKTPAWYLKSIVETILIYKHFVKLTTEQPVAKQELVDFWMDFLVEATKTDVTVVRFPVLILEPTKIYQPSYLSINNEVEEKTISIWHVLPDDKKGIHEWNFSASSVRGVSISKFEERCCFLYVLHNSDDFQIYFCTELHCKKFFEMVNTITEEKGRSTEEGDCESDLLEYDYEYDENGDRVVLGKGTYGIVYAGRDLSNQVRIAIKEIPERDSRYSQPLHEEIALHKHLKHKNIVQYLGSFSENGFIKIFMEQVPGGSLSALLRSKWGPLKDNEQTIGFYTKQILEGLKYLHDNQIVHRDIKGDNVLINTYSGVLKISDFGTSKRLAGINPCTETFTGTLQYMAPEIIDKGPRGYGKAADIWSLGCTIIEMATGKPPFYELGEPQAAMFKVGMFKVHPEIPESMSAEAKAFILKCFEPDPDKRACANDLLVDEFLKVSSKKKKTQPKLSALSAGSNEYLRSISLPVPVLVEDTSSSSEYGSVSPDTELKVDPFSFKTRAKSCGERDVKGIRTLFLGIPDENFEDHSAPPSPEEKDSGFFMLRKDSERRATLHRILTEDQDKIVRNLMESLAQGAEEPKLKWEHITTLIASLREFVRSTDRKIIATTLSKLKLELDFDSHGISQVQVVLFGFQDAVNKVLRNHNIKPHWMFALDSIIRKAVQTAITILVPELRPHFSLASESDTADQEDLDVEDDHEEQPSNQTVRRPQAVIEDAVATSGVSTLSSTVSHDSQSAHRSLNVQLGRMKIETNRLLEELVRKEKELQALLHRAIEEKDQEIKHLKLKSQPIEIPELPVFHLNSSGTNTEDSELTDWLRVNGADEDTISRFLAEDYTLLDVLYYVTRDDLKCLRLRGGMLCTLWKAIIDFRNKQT
Assay: ASK1 Cell Based Assay (phospho p38 read out in hASK1 transfected HEK293T-AP1 cells)
Details: HEK293T-AP1 cells, 1 mM hydrogen peroxide, phospho p38; read-out: Cell Based Assay IC50
OBSERVATION_TYPE: IC50

>>> test_result("CC(C)n1cnnc1-c1cccc(N2CCN(c3ccc(C(C#N)N4CCOCC4)nc3)C2=O)n1 (centres unmarked) [Example 1113]")
"> 1000 nM"
>>> test_result("CC(C)n1cnnc1-c1cccc(N2CCN(c3ccc(N4CCOCC4)cc3)C2=O)n1 [Example 1043]")
"140 nM"
>>> test_result("CC(C)n1cnnc1-c1cccc(N2CCN(c3ccc(S(=O)(=O)C4CC4)cc3)C2=O)n1 [Example 1025]")
"< 1000 nM"
>>> test_result("CC(C)NC(=O)c1ccc(N2CCN(c3cccc(-c4nncn4C(C)C)n3)C2=O)cn1 [Example 1110]")
"> 1000 nM"
>>> test_result("CC(C)n1cnnc1-c1cccc(N2CCN(c3ccc(C(=O)NC4CC4)cc3)C2=O)n1 [Example 1048]")
"> 1000 nM"
>>> test_result("CC(C)n1cnnc1-c1cccc(N2CCN(c3ccc(N4CC(C#N)C4)cc3)C2=O)n1 [Example 1071]")
"< 100 nM"
>>> test_result("CC(C)n1cnnc1-c1cccc(N2CCN(c3ccc(-n4ccnc4)nc3)C2=O)n1 [Example 1104]")
"> 100 nM"
>>> test_result("CC(C)n1cnnc1-c1cccc(N2CCN(c3ccc(N4CC(O)C4)cc3)C2=O)n1 [Example 1090]")
"> 1000 nM"
